Values were extracted from patent US20220089598A1.

System: recombinant NL4-3 virus (Renilla luciferase) in MT-2 cells
measurement.description: HIV cell culture assay (antiviral activity, luciferase readout)
Type: cell-based
test.context: Renilla, NL43
value.kind: EC50 (nM)
Report only the number, with the unit nM understood.

compound | value.kind | measured.number
Cn1nc(NS(C)(=O)=O)c2c(Cl)ccc(-n3c([C@H](Cc4cc(F)cc(F)c4)NC(=O)Cn4nc(C(F)F)c5c4C(F)(F)[C@@H]4C[C@H]54)nc4nc(-c5ccc(C(F)(F)F)cc5)ccc4c3=O)c21 (atropisomer, axis not shown; (P)) [Example 14] | EC50 | 0.084
Cn1nc(NS(C)(=O)=O)c2c(Cl)ccc(-n3c([C@H](Cc4cc(F)cc(F)c4)NC(=O)Cn4nc(C(F)(F)F)c5c4C(F)(F)[C@@H]4C[C@H]54)nc4nc(-c5ccccc5F)ccc4c3=O)c21 (atropisomer, axis not shown; (P)) [Example 17] | EC50 | 0.065
Cn1nc(NS(C)(=O)=O)c2c(Cl)ccc(-n3c([C@H](Cc4cc(F)cc(F)c4)NC(=O)Cn4nc(C(F)F)c5c4C(F)(F)[C@@H]4C[C@H]54)nc4nc(-c5ccc(F)c(Cl)c5)ccc4c3=O)c21 (atropisomer, axis not shown; (P)) [Example 29] | EC50 | 0.12
CS(=O)(=O)Nc1nn(CC(F)(F)F)c2c(-n3c([C@H](Cc4cc(F)cc(F)c4)NC(=O)Cn4ccc(C5CC5)n4)nc4nc(-c5ccccc5F)ccc4c3=O)ccc(Cl)c12 (atropisomer, axis not shown; (P)) [Example 36] | EC50 | 0.16
Cn1nc(NS(C)(=O)=O)c2c(Cl)ccc(-n3c([C@H](Cc4cc(F)cc(F)c4)NC(=O)Cn4nc(C(F)F)c5c4C(F)(F)[C@@H]4C[C@H]54)nc4nc(-c5ccc(F)cc5F)ccc4c3=O)c21 (atropisomer, axis not shown; (P)) [Example 39] | EC50 | 0.047

// EC50 value for Cn1nc(NS(C)(=O)=O)c2c(Cl)ccc(-n3c([C@H](Cc4cc(F)cc(F)c4)NC(=O)Cn4nc(C(F)F)c5c4C(F)(F)[C@@H]4C[C@H]54)nc4nc(-c5ccccc5F)ccc4c3=O)c21 (atropisomer, axis not shown; (P)) [Example 1] : 0.06

// EC50 value for Cn1nc(NS(C)(=O)=O)c2c(Cl)ccc(-n3c([C@H](Cc4cc(F)cc(F)c4)NC(=O)Cn4nc(C(F)F)c5c4C(F)(F)[C@@H]4C[C@H]54)nc4nc(-c5c(F)cccc5F)ccc4c3=O)c21 (atropisomer, axis not shown; (P)) [Example 3] : 0.11

// EC50 value for O=C(Cn1nc(C(F)(F)F)c2c1C(F)(F)[C@@H]1C[C@H]21)N[C@@H](Cc1cc(F)cc(F)c1)c1nc2nc(-c3ccccc3F)ccc2c(=O)n1-c1ccc(Cl)c2c(NS(=O)(=O)C3CC3)nn(CC(F)F)c12 (atropisomer, axis not shown; (P)) [Example 7] : 0.056

// EC50 value for Cn1nc(NS(C)(=O)=O)c2c(Cl)ccc(-n3c([C@H](Cc4cc(F)cc(F)c4)NC(=O)Cn4nc(C(F)F)c5c4C(F)(F)[C@@H]4C[C@H]54)nc4nc(-c5ccc(F)c(CO)c5)ccc4c3=O)c21 (atropisomer, axis not shown; (P)) [Example 5] : 0.16

====

System: recombinant NL4-3 virus (Renilla luciferase) in MT-2 cells
measurement.description: HIV cell culture assay (antiviral activity, luciferase readout)
Assay type: cell-based
test.context: Renilla, NL43
# Criterion met = EC50 below 0.1 nM (exclusive); Criterion not met = EC50 at/above 0.1 nM

Example results:
molecule | assay.target | group
O=C(Cn1ccc(C2CC2)n1)N[C@@H](Cc1cc(F)cc(F)c1)c1nc2nc(-c3ccccc3F)ccc2c(=O)n1-c1ccc(Cl)c2c(NS(=O)(=O)C3CC3)nn(CC(F)F)c12 (atropisomer, axis not shown; (P)) | recombinant NL4-3 virus (Renilla luciferase) in MT-2 cells | Criterion not met
Cn1nc(NS(C)(=O)=O)c2c(Cl)ccc(-n3c([C@H](Cc4cc(F)cc(F)c4)NC(=O)Cn4nc(C(F)F)c5c4C(F)(F)[C@@H]4C[C@H]54)nc4cc(-c5ccc(F)cc5F)cnc4c3=O)c21 (atropisomer, axis not shown; (P)) | recombinant NL4-3 virus (Renilla luciferase) in MT-2 cells | Criterion not met
CS(=O)(=O)Nc1nn(CC(F)F)c2c(-n3c([C@H](Cc4cc(F)cc(F)c4)NC(=O)Cn4ccc(C5CC5)n4)nc4nc(-c5ccccc5F)ccc4c3=O)ccc(Cl)c12 (atropisomer, axis not shown; (P)) | recombinant NL4-3 virus (Renilla luciferase) in MT-2 cells | Criterion not met
Cn1nc(NS(C)(=O)=O)c2c(Cl)ccc(-n3c([C@H](Cc4cc(F)cc(F)c4)NC(=O)Cn4nc(C(F)(F)F)c5c4C(F)(F)[C@@H]4C[C@H]54)nc4nc(-c5ccc(F)cc5F)ccc4c3=O)c21 (atropisomer, axis not shown; (P)) | recombinant NL4-3 virus (Renilla luciferase) in MT-2 cells | Criterion met
CS(=O)(=O)Nc1nn(CC(F)(F)F)c2c(-n3c([C@H](Cc4cc(F)cc(F)c4)NC(=O)Cn4nc(C(F)(F)F)c5c4C(F)(F)[C@@H]4C[C@H]54)nc4nc(-c5ccccc5F)ccc4c3=O)ccc(Cl)c12 (atropisomer, axis not shown; (P)) | recombinant NL4-3 virus (Renilla luciferase) in MT-2 cells | Criterion not met

Consider the molecule Cn1nc(NS(C)(=O)=O)c2c(Cl)ccc(-n3c([C@H](Cc4cc(F)cc(F)c4)NC(=O)Cn4nc(C(F)F)c5c4C(F)(F)[C@@H]4C[C@H]54)nc4nc(-c5ccc(F)cc5CO)ccc4c3=O)c21 (atropisomer, axis not shown; (P)) . Is its EC50 strictly less than 0.1 nM?
Criterion met

Consider the molecule Cn1nc(NS(C)(=O)=O)c2c(Cl)ccc(-n3c([C@H](Cc4cc(F)cc(F)c4)NC(=O)Cn4nc(C(F)F)c5c4C(F)(F)[C@@H]4C[C@H]54)nc4nc(-c5cc(Cl)c(F)cc5F)ccc4c3=O)c21 (atropisomer, axis not shown; (P)) . Is its EC50 strictly less than 0.1 nM?
Criterion not met

Consider the molecule Cn1nc(NS(C)(=O)=O)c2c(Cl)ccc(-n3c([C@H](Cc4cc(F)cc(F)c4)NC(=O)Cn4nc(C(F)F)c5c4C(F)(F)[C@@H]4C[C@H]54)nc4nc(-c5cc(F)cc(F)c5)ccc4c3=O)c21 (atropisomer, axis not shown; (P)) . Is its EC50 strictly less than 0.1 nM?
Criterion met

====

Each entry below lists one item and its recorded pEC50 value.
Tested on: recombinant NL4-3 virus (Renilla luciferase) in MT-2 cells
measurement.description: HIV cell culture assay (antiviral activity, luciferase readout)
Assay type: cell-based
test.context: Renilla, NL43
Just the number, please; pEC50 means minus log10 of the concentration in mol/L.

# annotated cases, reported pEC50 shown
compound | pEC50
Cn1nc(NS(C)(=O)=O)c2c(Cl)ccc(-n3c([C@H](Cc4cc(F)cc(F)c4)NC(=O)Cn4nc(C(F)F)c5c4C(F)(F)[C@@H]4C[C@H]54)nc4nc(-c5ccc(F)c(Cl)c5F)ccc4c3=O)c21 (atropisomer, axis not shown; (P)) [Example 22] | 10.00
Cn1nc(NS(C)(=O)=O)c2c(Cl)ccc(-n3c([C@H](Cc4cc(F)cc(F)c4)NC(=O)Cn4nc(C(F)F)c5c4C(F)(F)[C@@H]4C[C@H]54)nc4nc(-c5ccc(Cl)cc5F)ccc4c3=O)c21 (atropisomer, axis not shown; (P)) [Example 8] | 10.17
CS(=O)(=O)Nc1nn(CC(F)F)c2c(-n3c([C@H](Cc4cc(F)cc(F)c4)NC(=O)Cn4nc(C(F)F)c5c4C(F)(F)[C@@H]4C[C@H]54)nc4nc(-c5ccccc5F)ccc4c3=O)ccc(Cl)c12 (atropisomer, axis not shown; (P)) [Example 10] | 10.01

For the next question, use this compound.
// pEC50 value for COc1nc2nc([C@H](Cc3cc(F)cc(F)c3)NC(=O)Cn3nc(C(F)F)c4c3C(F)(F)[C@@H]3C[C@H]43)n(-c3ccc(Cl)c4c(NS(C)(=O)=O)nn(C)c34)c(=O)c2cc1-c1ccccc1F (atropisomer, axis not shown; (P)) [Example 2] : 9.60

====

measurement.description: Compound cytotoxicity, XTT-based colorimetric assay
Type: cell-based
test.context: human; uninfected MT2 cells, day 4, XTT assay
Each entry below lists one item and its recorded CC50 at 4 day value.

# annotated cases, reported CC50 at 4 day shown
compound | result
Cn1nc(NS(C)(=O)=O)c2c(Cl)ccc(-n3c([C@H](Cc4cc(F)cc(F)c4)NC(=O)Cn4nc(C(F)F)c5c4C(F)(F)[C@@H]4C[C@H]54)nc4nc(-c5ccc(F)c(C#N)c5)ccc4c3=O)c21 (atropisomer, axis not shown; (P)) | > 100 nM
Cn1nc(NS(C)(=O)=O)c2c(Cl)ccc(-n3c([C@H](Cc4cc(F)cc(F)c4)NC(=O)Cn4nc(C(F)(F)F)c5c4C(F)(F)[C@@H]4C[C@H]54)nc4nc(-c5ccc(F)cc5F)ccc4c3=O)c21 (atropisomer, axis not shown; (P)) | > 500 nM

// CC50 at 4 day value for Cn1nc(NS(C)(=O)=O)c2c(Cl)ccc(-n3c([C@H](Cc4cc(F)cc(F)c4)NC(=O)Cn4nc(C(F)F)c5c4C(F)(F)[C@@H]4C[C@H]54)nc4nc(-c5cc(F)c(F)c(F)c5)ccc4c3=O)c21 (atropisomer, axis not shown; (P)) : > 100 nM

// CC50 at 4 day value for CS(=O)(=O)Nc1nn(CC(F)F)c2c(-n3c([C@H](Cc4cc(F)cc(F)c4)NC(=O)Cn4nc(C(F)F)c5c4C(F)(F)[C@@H]4C[C@H]54)nc4nc(-c5ccccc5F)ccc4c3=O)ccc(Cl)c12 (atropisomer, axis not shown; (P)) : > 100 nM

// CC50 at 4 day value for CS(=O)(=O)Nc1nn(CC(F)(F)F)c2c(-n3c([C@H](Cc4cc(F)cc(F)c4)NC(=O)Cn4ccc(C5CC5)n4)nc4nc(-c5ccccc5F)ccc4c3=O)ccc(Cl)c12 (atropisomer, axis not shown; (P)) : > 500 nM

// CC50 at 4 day value for CS(=O)(=O)Nc1nn(CC(F)(F)F)c2c(-n3c([C@H](Cc4cc(F)cc(F)c4)NC(=O)Cn4nc(C(F)(F)F)c5c4C(F)(F)[C@@H]4C[C@H]54)nc4nc(-c5ccccc5F)ccc4c3=O)ccc(Cl)c12 (atropisomer, axis not shown; (P)) : > 100 nM

// CC50 at 4 day value for CS(=O)(=O)Nc1nn(CC(F)F)c2c(-n3c([C@H](Cc4cc(F)cc(F)c4)NC(=O)Cn4ccc(C5CC5)n4)nc4nc(-c5ccccc5F)ccc4c3=O)ccc(Cl)c12 (atropisomer, axis not shown; (P)) : > 500 nM
